Sequence of the target: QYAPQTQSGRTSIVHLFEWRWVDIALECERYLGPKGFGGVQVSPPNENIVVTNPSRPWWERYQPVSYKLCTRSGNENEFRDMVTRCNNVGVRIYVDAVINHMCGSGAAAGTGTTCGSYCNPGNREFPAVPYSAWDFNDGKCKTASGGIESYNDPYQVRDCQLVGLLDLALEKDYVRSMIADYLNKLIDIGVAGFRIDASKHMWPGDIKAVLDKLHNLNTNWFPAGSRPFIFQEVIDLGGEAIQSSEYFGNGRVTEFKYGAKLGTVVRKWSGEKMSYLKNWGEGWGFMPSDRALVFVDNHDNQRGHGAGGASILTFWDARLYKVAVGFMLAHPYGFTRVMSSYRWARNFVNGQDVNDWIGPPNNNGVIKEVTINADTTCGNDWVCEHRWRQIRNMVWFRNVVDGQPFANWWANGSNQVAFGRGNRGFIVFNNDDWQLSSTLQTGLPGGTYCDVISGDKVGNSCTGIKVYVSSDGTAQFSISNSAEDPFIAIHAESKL
observable: pKi
Friendly reminder that pKi comes from taking -log10 of the concentration in mol/L.

• CCCCC/C=C/C(=O)CCc1ccc(O)c(OC)c1 = 3.65
• CCCCC[C@H](O)CC(=O)CCc1ccc(O)c(OC)c1 = 4.05

Attention now shifts to the item below.
Incoming: // Input: `CCCCCCCC(=O)CCc1ccc(O)c(OC)c1` . Output its pKi only.
Outgoing: 4.08

====

targetEntity: Saccharomyces cerevisiae α-glucosidase (E.C. 3.2.1.20) (Saccharomyces cerevisiae, UniProt P53341)
Construct: purchased Sigma-Aldrich through Capital Lab Supplies
Sequence (P53341 whole entry): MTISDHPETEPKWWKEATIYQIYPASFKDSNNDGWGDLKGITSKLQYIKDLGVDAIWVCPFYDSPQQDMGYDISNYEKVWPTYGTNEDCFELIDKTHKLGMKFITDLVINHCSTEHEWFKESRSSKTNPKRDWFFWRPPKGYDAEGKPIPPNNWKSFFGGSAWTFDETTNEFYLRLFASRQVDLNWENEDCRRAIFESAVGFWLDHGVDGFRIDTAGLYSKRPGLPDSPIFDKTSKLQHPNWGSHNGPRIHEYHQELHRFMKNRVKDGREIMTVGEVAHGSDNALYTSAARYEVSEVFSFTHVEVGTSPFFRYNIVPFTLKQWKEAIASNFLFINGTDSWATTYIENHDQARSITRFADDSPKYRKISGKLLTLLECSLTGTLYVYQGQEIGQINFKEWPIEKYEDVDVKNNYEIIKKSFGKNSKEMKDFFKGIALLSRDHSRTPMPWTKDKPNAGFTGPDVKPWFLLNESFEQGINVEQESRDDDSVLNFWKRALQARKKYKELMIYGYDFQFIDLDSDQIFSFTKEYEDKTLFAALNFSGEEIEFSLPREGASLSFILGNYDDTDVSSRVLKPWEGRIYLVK
protocolNotes: α-Glucosidase inhibitory effect (pNPG method)
Type: biochemical
observable: pIC50
Friendly reminder that pIC50 comes from taking -log10 of the concentration in mol/L.

Incoming: // Input: `CCCCC[C@H](O)CC(=O)CCc1ccc(O)c(OC)c1` . Output its pIC50 only.
Outgoing: 4.67

====

targetEntity: Saccharomyces cerevisiae α-glucosidase (E.C. 3.2.1.20) (Saccharomyces cerevisiae, UniProt P53341)
Construct: purchased Sigma-Aldrich through Capital Lab Supplies
protocolNotes: biochemical
Type: biochemical
conditionsUsed: compound 30 μg/mL; pNPG 0.313–5.0 mM
observable: Vmax, α-glucosidase inhibition (µmol/min)
# number only, unit µmol/min dropped from output

Solved cases (3 shown):
• CC1(C)CC[C@]2(C(=O)O)CC[C@]3(C)C(=CC[C@@H]4[C@@]5(C)CC[C@H](O)C(C)(C)[C@@H]5CC[C@]43C)[C@@H]2C1 = 64.20
• CCCCC[C@H](O)CC(=O)CCc1ccc(O)c(OC)c1 = 123.10
• CCCCCCCC(=O)CCc1ccc(O)c(OC)c1 = 81.20

Attention now shifts to the item below.
Incoming: // Input: `CCCCC/C=C/C(=O)CCc1ccc(O)c(OC)c1` . Output its Vmax, α-glucosidase inhibition only.
Outgoing: 55.70

====

targetEntity: Saccharomyces cerevisiae α-glucosidase (E.C. 3.2.1.20) (Saccharomyces cerevisiae, UniProt P53341)
Construct: purchased Sigma-Aldrich through Capital Lab Supplies
protocolNotes: biochemical
Format: biochemical
observable: pKi
Friendly reminder that pKi comes from taking -log10 of the concentration in mol/L.

Incoming: // Input: CCCCC[C@H](O)CC(=O)CCc1ccc(O)c(OC)c1 [6-Gingerol (3), 6-gingerol] . Output its pKi only.
Outgoing: 4.58
